Measured GI50 by item
Tested on: UO-31 renal
TEST_NAME: NCI tumour cell line growth inhibition, 48 h
MEASURE: GI50

In [3]: df
Out[3]:
                                   molecule  assayed_target        val
0  CN(C)c1ccc(Nc2c3ccccc3nc3cc(NC(=O)CCN4CCCC4)ccc23)cc1     UO-31 renal   0.595 µM
1  CCCCCCCCCCCC1=NC(C)(C)CN1CC(C)O (stereo not drawn)     UO-31 renal    4.75 µM
2  O=C(Nc1ccc(Oc2ccc(NC(=O)Nc3ccc([N+](=O)[O-])cc3)cc2)cc1)Nc1ccc([N+](=O)[O-])cc1     UO-31 renal   0.516 µM
3  NC(=O)c1sc(-n2cnc3ccc(C(F)(F)F)cc32)cc1OCc1ccccc1Br     UO-31 renal    5.48 µM
4  C=C(C)[C@@H]1CC[C@]2(C(=O)O)CC[C@]3(C)[C@H](CC[C@@H]4[C@@]5(C)C/C(=C/c6cccc(I)c6)C(=O)C(C)(C)[C@@H]5CC[C@]43C)[C@@H]12     UO-31 renal    1.72 µM
5  COc1cc(-c2nc(-c3ccc(-c4nc5ccc(F)cc5[nH]4)cc3)no2)cc(OC)c1OC     UO-31 renal    2.51 µM
6  CN1CCN(c2ccc3nc(-c4[nH]ncc4Nc4ncnc5c4OCCCN5)[nH]c3c2)CC1     UO-31 renal  0.0179 µM
7  C[C@@H](Oc1cc(-n2cnc3ccc(OCC4CCN(C)CC4)cc32)sc1C(N)=O)c1ccccc1Cl     UO-31 renal   0.616 µM

###

Tested on: HCT-15 colon
TEST_NAME: NCI tumour cell line growth inhibition, 48 h
MEASURE: TGI

                                    compound       val
 0  O=c1[nH]nc(Cc2ccc(Cl)cc2)n1/N=C/c1c[nH]c2ccccc12  > 100 µM
 1  COc1cc(-c2nc3cc(Cl)c(Cl)cc3[nH]2)ccc1OCC(=O)N=Nc1c(O)[nH]c2ccc(Cl)cc12  > 100 µM
 2  CCCC(C)c1c(Cl)nc(Cl)nc1Cl (configuration not stated)   64.4 µM
 3  Nc1nc(-c2ccc(Cl)cc2)cc(-c2ccc(Cl)cc2)c1-c1nc2ccccc2o1   34.8 µM
 4  C[C@@]12C[C@@H](c3ccccc3O1)N1Cc3ccccc3CSC1=N2  > 100 µM
 5  CCOC1NC(/N=C/c2ccc(OC)cc2)=C(C#N)C1C#N (configuration not stated)  > 100 µM
 6  Cc1cn([C@H]2C[C@H](O)[C@@H](CO)O2)c(=O)nc1N  > 100 µM
 7  OCCn1cc(-c2cnc3nnn(Cc4ccc5ncccc5c4)c3n2)cn1  > 100 µM
 8  COC12C=CC(CC1)C(C)(C)C2OS(C)(=O)=O (configuration not stated)  > 100 µM
 9  COc1cc(-c2nc(-c3ccc(-c4nc5ccc(F)cc5[nH]4)cc3)no2)cc(OC)c1OC   12.8 µM
10  O=C1CCC2(c3ccc(Cl)cc3)Nc3ncncc3N12 (configuration not stated)   > 10 µM
11            O=C1CCSC(=S)N1c1ccc(Br)c(Cl)c1   40.2 µM
12  CN(C)C(=S)/N=c1\ss/c(=N\C(=S)N(C)C)n1Cc1ccco1  > 100 µM
13  CC1(C)CN=CC(C)(OCc2ccccc2)C(=O)NC(C)(C)CN=CC(C)(OCc2ccccc2)C(=O)N1 (configuration not stated)   > 10 µM
14  Fc1cccc(Cl)c1Cn1c(-c2c(F)cccc2Cl)nc2ccccc21   42.9 µM
15     Cc1cc2oc3c(ccc(=O)n3C)c(=O)c2c(C)c1Cl  > 100 µM
16  COc1ccc(C(=O)/C=C/c2cc(-c3ccc4c(c3)OCO4)n[nH]2)cc1OC  > 100 µM
17  O=C1c2cc3c(cc2CC1Cc1ccc2c(c1)CCC2)CCC3 (configuration not stated)  > 100 µM
18  COc1cccc([C@@H]2CC(=O)c3cc4c(cc3N2)OCO4)c1  > 100 µM
19  Cc1ccc(/C=C/C(=O)c2ccc([N+](=O)[O-])cc2)cc1  > 100 µM
20  CC1C(C#N)(C#N)C(C#N)=C(N)C1(C)[N+](=O)[O-] (configuration not stated)  > 100 µM
21  OCC(O)COc1c(Cl)cc(Cl)cc1Cl (configuration not stated)  > 100 µM

###

Tested on: ACHN renal
TEST_NAME: NCI tumour cell line growth inhibition, 48 h
MEASURE: GI50

In [3]: df
Out[3]:
                                   compound       val
0  CCOC(=O)c1ccccc1SC(C[N+](=O)[O-])c1ccccc1 (centres undefined)   2.02 µM
1  CC(C)=CC(=O)N[C@@H]1CC2CCC3C(CC[C@@]4(C)C3CC[C@@H]4C(C)N(C)C)[C@@]2(C)C[C@@H]1O (some centres undefined)   6.36 µM
2  Nc1nc(-c2ccc(Cl)cc2)cc(-c2ccc(Cl)cc2)c1-c1nc2ccccc2o1   17.4 µM
3  OCCn1cc(-c2cnc3nnn(Cc4ccc5ncccc5c4)c3n2)cn1  > 100 µM

###

Tested on: MDA-MB-435
TEST_NAME: NCI tumour cell line growth inhibition, 48 h
// values below are reported TGI
MEASURE: TGI

COMPOUND	MEASURE	VAL
CCN(CC)C1Oc2cc3c(cc2C(c2cccc(OC)c2O)C1C)OCO3 (stereo not drawn)	TGI	4.96 µM
CC(C)=CCC[C@@H](C)C1=CC(=O)C(C)=C(O)C1=O	TGI	16.9 µM
Cc1cn([C@@H]2C[C@H](CO)[C@@H]2O)c(=O)[nH]c1=O	TGI	> 100 µM
O=C(O)c1cn(C2CC2)c2cc(N3CCNCC3)c(F)cc2c1=O	TGI	> 100 µM
COc1ccc(-c2nc(-c3cnccn3)n(Cc3ccccc3)n2)cc1	TGI	> 100 µM
Nc1ccccc1OCCCOc1ccccc1N	TGI	> 100 µM
O=C1c2cc3c(cc2CC1Cc1ccc2c(c1)CCC2)CCC3 (stereo not drawn)	TGI	> 100 µM
CC(=O)OCC1OC(n2c(N)c(C#N)c(-c3cccc(Cl)c3)c(C#N)c2=S)C(OC(C)=O)C(OC(C)=O)C1OC(C)=O (stereo not drawn)	TGI	50 µM
COc1ccc2c(c1)C(=O)c1c-2c(N2CCN(C(=O)CNCCN(C)C)CC2)nc2ccccc12	TGI	4.98 µM
NCCS(=O)(=O)O	TGI	> 100 µM
O=S(c1ccc(Cl)cc1)c1ccccc1C1=NCCN1 (stereo not drawn)	TGI	> 100 µM
O=C(c1nn(-c2ccc(Cl)cc2)cc1O)n1nc(C(F)(F)F)cc1-c1ccccc1	TGI	> 100 µM
Cc1ccc2nc3c(n2c1)C(=O)C(=O)c1ccccc1-3	TGI	0.137 µM
CCCCOc1ccc2c(c1)CC[C@@H]1[C@@H]2CC[C@]2(C)C(=O)N(CCCC)C(=O)C[C@@H]12	TGI	> 100 µM
O=C(Nc1ccc(Oc2ccc(NC(=O)Nc3ccc([N+](=O)[O-])cc3)cc2)cc1)Nc1ccc([N+](=O)[O-])cc1	TGI	8.65 µM
O=C1/C(=C/c2ccc(Cl)cc2)CCC1CN1CCOCC1 (stereo not drawn)	TGI	14.3 µM
O=C1C(Br)=C(Br)C(=O)c2ccccc21	TGI	21.8 µM
COc1cnc2c(c1)C(=O)c1c-2n(CCCNCCN2CCOCC2)c(=O)c2cc([N+](=O)[O-])ccc12	TGI	15.4 µM
COc1ccc(C2=NNC(c3cc4cc(Br)ccc4nc3Cl)C2)cc1 (stereo not drawn)	TGI	> 25 µM
N#Cc1c(N2CCCC2)nsc1Nc1ccc(F)cc1	TGI	> 100 µM
C[N+]1([O-])[C@H]2CC(OC(=O)[C@H](CO)c3ccccc3)C[C@H]1[C@H]1O[C@H]12 (stereo partly drawn)	TGI	> 100 µM
S=C(N/N=C(\C(=N/NC(=S)N1CCCCC1)c1ccccn1)c1ccccn1)N1CCCCC1	TGI	> 100 µM
CC(=O)O[C@H]1C[C@](C)(O)[C@@]23CC([C@@H](OC(=O)C(C)(C)O)[C@@H](OC(C)=O)C2(COC(=O)c2ccccc2)[C@H]1OC(C)=O)C(C)(C)O3 (stereo partly drawn)	TGI	> 100 µM
CNC(=O)c1cc(Oc2ccc3nc(N[C@@H]4CCCC[C@H]4O)sc3c2)ccn1	TGI	> 100 µM
O=C1CCCCN1C(=O)c1ccc([N+](=O)[O-])cc1	TGI	> 100 µM
CC1CCOc2ccc(cc2)C=Nc2ccc(cc2)-c2ccc(cc2)N=Cc2ccc(cc2)OCC1 (stereo not drawn)	TGI	> 100 µM
Fc1cccc(Cl)c1Cn1c(-c2c(F)cccc2Cl)nc2ccccc21	TGI	61.7 µM
OCC1OC(c2ccccc2)CC1O (stereo not drawn)	TGI	> 100 µM
COc1cccc([C@@H]2CC(=O)c3cc4c(cc3N2)OCO4)c1	TGI	> 100 µM
O=c1[nH]c(=O)n(COCc2ccccc2)c2ccccc12	TGI	> 100 µM
CCN(CC)c1ccc2cc(C(N)=O)c(=Nc3ccc(F)cc3)oc2c1	TGI	> 100 µM
COc1cc(/C=C/C(=N\NC(=S)NN)c2sc(NNC(C)=O)nc2C)ccc1O	TGI	> 100 µM
Cc1ccc(N=C2SC(=NN(C)C)SC2=Nc2ccc(C)cc2)cc1	TGI	> 100 µM
Cc1ccc(-c2cc(-c3ccc(C)cc3)nc(N3CCN(CCNc4ccnc5cc(Cl)ccc45)CC3)n2)cc1	TGI	6.85 µM
O=S1(=O)OCCCOS(=O)(=O)C1(Br)Br	TGI	> 100 µM
Cc1cn([C@H]2C[C@H](O)[C@@H](CO)O2)c(=O)nc1N	TGI	> 100 µM
OCCn1cc(-c2cnc3nnn(Cc4ccc5ncccc5c4)c3n2)cn1	TGI	> 100 µM
CC#CC#C/C=C1\C=CC2(OC=CC2OC(C)=O)O1 (stereo not drawn)	TGI	> 100 µM
